biological target: TbrCatL (Trypanosoma brucei rhodesiense, UniProt Q95PM0); construct: Conor Caffrey (University of California San Diego); test: TbrCatL enzymatic inhibition assay (cleavage of fluorogenic substrate Z-FR-AMC); type: biochemical; settings: 0’ (pre-incubation time); sheet "Screening results";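 further: at 5 µM compound concentration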
Sequence (Q95PM0 entry or part of it): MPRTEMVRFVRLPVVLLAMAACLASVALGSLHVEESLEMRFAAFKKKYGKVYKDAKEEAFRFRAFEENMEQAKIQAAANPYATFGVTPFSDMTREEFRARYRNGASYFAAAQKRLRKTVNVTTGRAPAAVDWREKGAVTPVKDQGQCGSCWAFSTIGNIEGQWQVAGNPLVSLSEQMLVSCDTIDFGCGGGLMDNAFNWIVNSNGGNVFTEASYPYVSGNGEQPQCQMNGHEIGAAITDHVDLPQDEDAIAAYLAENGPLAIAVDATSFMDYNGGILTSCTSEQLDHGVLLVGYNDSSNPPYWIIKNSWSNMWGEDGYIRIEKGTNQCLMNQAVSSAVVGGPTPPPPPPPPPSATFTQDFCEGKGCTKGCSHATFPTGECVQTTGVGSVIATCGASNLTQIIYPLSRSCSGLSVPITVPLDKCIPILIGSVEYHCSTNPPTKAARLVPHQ
MEASURED_PROPERTY: TbrCatL 0’ Inhibition
Answer as a quantity: numeral, then unit.

Some molecules with recorded TbrCatL 0’ Inhibition:
> print(dat)
                                   molecule  result
1  COc1cc(Br)cc2cc(C(=O)Nc3cccc(C(F)(F)F)c3)c(=O)oc12 [MMV688891]      0%
2  Cc1cc(C)n(-c2ccc(NC(=O)C3CCN(Cc4cnc(C)s4)CC3)cc2)n1 [MMV007625]    1.5%

With those in mind, consider the next molecule.
Q: Which TbrCatL 0’ Inhibition value belongs to Cc1nc(-c2ccccn2)nc(N2CCC(Cc3ccccc3)C2)c1Cl (stereo not drawn) [MMV659004] ?
Result: -4.5%

###

molecular target: cruzain (Trypanosoma cruzi, UniProt P25779); experiment: biochemical; conditions: 10’ (pre-incubation); sheet Screening results;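 further: at 5 µM compound concentration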
Sequence (P25779 123-337 limits assumed): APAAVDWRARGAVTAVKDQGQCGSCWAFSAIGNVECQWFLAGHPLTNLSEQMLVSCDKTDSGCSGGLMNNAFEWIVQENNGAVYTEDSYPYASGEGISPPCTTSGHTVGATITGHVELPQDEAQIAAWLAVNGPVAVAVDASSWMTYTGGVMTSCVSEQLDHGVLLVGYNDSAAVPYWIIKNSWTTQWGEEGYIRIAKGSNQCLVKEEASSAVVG
MEASURED_PROPERTY: Cruzain Inhibition 10’ (%)
Answer format: numeric, % implied, no suffix.

> print(dat)
                                   molecule       measured.property  numeric.value
1  O=C(C(Cc1c[nH]c2ccccc12)NS(=O)(=O)c1ccc(Cl)cc1)N1CCCCC1 (centres unmarked) [MMV085210]  Cruzain Inhibition 10’            6.5
2  Cc1ccc2c(c1C)NC(=O)C21NN=C(c2ccccc2)S1 (centres unmarked) [MMV019189]  Cruzain Inhibition 10’            -22
3  O=C(Nc1nc(-c2ccccn2)cs1)C1CC1c1ccccc1F (centres unmarked) [MMV1028806]  Cruzain Inhibition 10’             17
4  CNc1snc(C)c1C(=O)NCCOc1ccc(OC)cc1 [MMV688554]  Cruzain Inhibition 10’           -4.6

Q: Which Cruzain Inhibition 10’ value belongs to CCOc1ccc2cc(-c3nn(CC4CCN(C)CC4)c4ncnc(N)c34)ccc2c1 [MMV688854] ?
Result: 11

###

molecular target: cruzain (Trypanosoma cruzi, UniProt P25779); test: biochemical; conditions: 0’ (pre-incubation time); sheet "Screening results"
Cruzain 0’ Inhibition reference
Answer format: numeric, % implied, no suffix.

Some compounds with recorded Cruzain 0’ Inhibition:
> print(dat)
                                   compound      measured.property  numeric.value
1  COc1ccc(-c2nnc3ccc(-c4cccc(C(C)C)c4)cn23)cc1OC  Cruzain 0’ Inhibition            -16
2  CN(C(=O)c1cc2c(-c3cncnc3)cccc2[nH]1)c1ccccc1  Cruzain 0’ Inhibition              5
3  CCn1ncc2c(NC3CCOCC3)c(CNC(=O)c3ccnn3C)c(C)nc21  Cruzain 0’ Inhibition           -0.3

Q: Which Cruzain 0’ Inhibition value belongs to Cc1cc(NCCc2ccccc2)nc(NC(=N)Nc2ccc(Cl)cc2)n1 ?
Result: 11

Q: Which Cruzain 0’ Inhibition value belongs to c1cncc(NCc2ccc(-c3cc4ccncc4cc3OC3CCNCC3)s2)c1 ?
Result: 29

Q: Which Cruzain 0’ Inhibition value belongs to CCc1nc2ccc(Cl)cn2c1C(=O)NCc1ccc(N2CCC(c3ccc(OC(F)(F)F)cc3)CC2)cc1 ?
Result: 4.7

Q: Which Cruzain 0’ Inhibition value belongs to c1ccc(Oc2ccc(-c3cncc(-c4ccc5[nH]ccc5c4)n3)cc2)cc1 ?
Result: -6

Q: Which Cruzain 0’ Inhibition value belongs to CCCNC(=O)N1CCC2(CC1)CC(=O)c1cc(C)ccc1O2 ?
Result: 15

Q: Which Cruzain 0’ Inhibition value belongs to Nc1cccnc1Nc1ccc(Cl)cc1 ?
Result: 4.7

Q: Which Cruzain 0’ Inhibition value belongs to CC(C)C(Oc1cccc2ccccc12)C(=O)O (centres unmarked) ?
Result: 2.8

Q: Which Cruzain 0’ Inhibition value belongs to Nc1ncnc2c1c(Cc1cccc3ccccc13)nn2CC1CCNCC1 ?
Result: -4.4
